src = ChEMBL document CHEMBL3507680

# assay-text: Human HepG2 cell viability assay in 384 well format
# Format: toxicity, cell-based
# Set-up: dose 125 nL, time 70.5 hour; concentration not given beside the values
# settings: HepG2 cells, read-out: Inhibition
quantity-kind: cytotoxicity at 70.5 h (%)
Write it as a number; the unit % goes unstated.

Worked cases, cytotoxicity at 70.5 h given:
• COCCN(CCOC)c1ncccc1Cl = -6.57
• CCOc1ccccc1OC1CCN(C(=O)c2[nH]nc(C)c2Br)CC1 = 0.076
• Cc1ccc(C)c(Oc2ccc(CNC(=O)C3CCC(=O)N3)cn2)c1 (stereo unspecified) = -4.69
• Cc1nc2c(c(NC(C)C)n1)CCN(C1CCOCC1)CC2 = 2.46
• CCOCC(O)CN1CCN(C(=O)c2ccc(N(C)C)nc2)CC1 (stereo unspecified) = 1.39

Req: Input Cc1cc(=O)n(CC(=O)NCC2CCCO2)c(-c2ccc(F)cc2)n1 (stereo unspecified) , output reported cytotoxicity at 70.5 h.
Resp: 13

Req: Please look at this compound and report its cytotoxicity at 70.5 h: Cc1cnc(CN(C)C2CCN(Cc3nc4ccccc4o3)C2)o1 (stereo unspecified)
Resp: 15.3

Req: Determine its reported cytotoxicity at 70.5 h: Cc1ccc(NC2CCN(C(=O)c3cccc(F)c3F)CC2)nn1
Resp: -13.7

Req: Provide measured cytotoxicity at 70.5 h value, entry: O=C(NCCc1ccccc1)c1cn(CCNCc2cccnc2)nn1
Resp: -6.19

Req: Return the recorded cytotoxicity at 70.5 h value; entry: O=C(Nc1ccccc1)c1cccc(S(=O)(=O)NC[C@@H]2C[C@H](F)CN2)c1
Resp: 6.01

Req: Give the measured cytotoxicity at 70.5 h for Cc1csc(N(C)C(=O)C2CC(=O)N(CCc3ccccc3)C2)n1 (stereo unspecified)
Resp: 4.67

* * *

Quick list: cytotoxicity at 70.5 h per entry.
# assay-text: Human HepG2 cell viability assay in 384 well format
# Assay type: toxicity, cell-based
# Parameters: dose 125 nL, time 70.5 hour; concentration not given beside the values
# settings: HepG2 cells, read-out: Inhibition
The response must be a number in % with no trailing unit.

# annotated cases, reported cytotoxicity at 70.5 h shown
- N[C@H]1CN(C(=O)c2cnc3cc(Cl)ccc3c2O)C[C@@H]1C1CC1: 5.93
- CCOc1ccc(Cl)c(C(=O)NCCS(N)(=O)=O)n1: 22
- CCCN(CC(F)F)c1cc(COC)nc2ncnn12: -9.58

Req: Output measured cytotoxicity at 70.5 h for this item: Cc1ccc(CN(C)C(=O)c2cnsn2)cc1
Resp: 4.93

Req: Please give measured cytotoxicity at 70.5 h of the following entry: Cn1cc(-c2csc(N3CCN(c4nccs4)CC3)n2)cn1
Resp: -0.763

Req: Give reported cytotoxicity at 70.5 h value for COc1ccccc1C(=O)N1CCN(C(=O)Cc2ccccn2)CC1
Resp: -6.85

Req: Provide one value: measured cytotoxicity at 70.5 h of Cc1nc2c(c(N3CCCC(OCc4ccccn4)C3)n1)CCNCC2 (centres undefined)
Resp: -14.9

Req: Identify measured cytotoxicity at 70.5 h associated with CC(=O)NCC1CCCN(Cc2nc(Cc3ccccc3F)no2)C1 (centres undefined)
Resp: 0.817

Req: Give the measured cytotoxicity at 70.5 h for COC(C)(C)CC(C)NCc1cn2ccccc2n1 (centres undefined)
Resp: -16.8

Req: Provide only the value of recorded cytotoxicity at 70.5 h for Cc1cc(CN2CCC(CNC(=O)c3nccc4ccccc34)C2)[nH]n1 (centres undefined)
Resp: 9.66

Req: Provide measured cytotoxicity at 70.5 h value, entry: COCCN1CCC(C(=O)N(C)Cc2cccc(Cl)c2)C1 (centres undefined)
Resp: 32

Req: Given the molecule COc1c(CNCc2ccc(CS(C)(=O)=O)cc2)c(C)nn1C , write its reported cytotoxicity at 70.5 h.
Resp: 26.4

Req: Quickly give me recorded cytotoxicity at 70.5 h for CC(=O)N1CCCC(c2ccc3sc(N)nc3n2)C1 (centres undefined)
Resp: -8.18

Req: Identify measured cytotoxicity at 70.5 h associated with Cc1nn(C)c2cnn(Cc3ccc(C(=O)NCC4CC4)o3)c12
Resp: -10.2

Req: Recall and state the measured cytotoxicity at 70.5 h for O=S(=O)(c1cccnc1)N1CCN(CC(O)c2cccs2)CC1 (centres undefined) .
Resp: -1.48

Req: Supply measured cytotoxicity at 70.5 h of COc1cc(C)c(CNC(C)c2csc(C3CC3)n2)cc1OC (centres undefined) in your reply.
Resp: -4

Req: Annotate the molecule CC(C)c1ccc(NC2CCCN(Cc3ccncc3)C2)cc1 (centres undefined) with its measured cytotoxicity at 70.5 h.
Resp: 0.778

Req: Return value of cytotoxicity at 70.5 h for input COCCOc1ccc(Cl)c(C(=O)N2CCN(CCO)CC2)n1 , no commentary.
Resp: -2.95

Req: Consider the molecule O=C(C1CC1)N1CC[C@H](c2nnc(Cc3c[nH]c4ccccc34)o2)C1 and give its recorded cytotoxicity at 70.5 h.
Resp: -1.09

Req: For the molecule CCc1ncncc1C(=O)N1CCCN(Cc2ccc(C#N)cc2)CC1 , give its reported cytotoxicity at 70.5 h.
Resp: -10.9

Req: Give the reported value of cytotoxicity at 70.5 h for this record: CC(C)C(=O)NCCNc1nccc(-c2cc(C(=O)O)ccn2)n1
Resp: -0.446

Req: Check the records and state cytotoxicity at 70.5 h for Cc1ccc(-n2ccnc2-c2cn(C3CCNCC3)nn2)c(Cl)c1
Resp: 2.06

Req: Output cytotoxicity at 70.5 h of c1coc(CN2CC[C@@H]3O[C@@H](COCc4ccncc4)CC[C@@H]32)c1
Resp: 3.57

Req: Please report the measured cytotoxicity at 70.5 h for O=C(CNc1cccc(S(=O)(=O)C(F)F)c1)Nc1ccccc1
Resp: -5.1

* * *

# assay-text: Human HepG2 cell viability assay in 384 well format
# Assay type: toxicity, cell-based
# Design: dose 125 nL, time 70.5 hour; concentration not given beside the values
# settings: HepG2 cells, read-out: Inhibition
cytotoxicity at 70.5 h values, listed per item
Dear colleague, please return just the value in %, with no unit written.

Req: Look up and report measured cytotoxicity at 70.5 h for this entry: c1cncc(-c2nnc([C@H]3CCN(CC4CCCCC4)C3)o2)c1
Resp: -6.55

Req: Provide cytotoxicity at 70.5 h value for the following compound: CCN1CCC(NC(=O)CN2CCc3c(nc(C4CC4)n3C)C2)CC1
Resp: -10.9

Req: Supply recorded cytotoxicity at 70.5 h for Cc1ccc(C2CN(C(=O)c3ccn(C)c(=O)c3)CCO2)nc1 (stereo not given) here.
Resp: -7.64

Req: Answer with the recorded cytotoxicity at 70.5 h for the compound listed here: CSCC(=O)N1CCCN(c2ccccc2C)CC1
Resp: -4.65

Req: Indicate the recorded cytotoxicity at 70.5 h value for this compound: CCN(C)c1ncnc2c1CCN(Cc1ccsc1)CC2
Resp: 0.529

Req: Supply recorded cytotoxicity at 70.5 h for CCc1ccc(C2CCCCCN2C(=O)CNC(=O)NC2CC2)o1 (stereo not given) here.
Resp: -1.33

Req: Consider the compound Cc1ccc(N2CCC3(CCN(C(=O)c4ccoc4)CC3)CC2)nn1 and give its recorded cytotoxicity at 70.5 h.
Resp: -4.56

Req: Answer with the recorded cytotoxicity at 70.5 h for the compound listed here: CCN(CC)c1ccc(CNC(=O)c2cnccn2)cn1
Resp: 18

Req: Let me know recorded cytotoxicity at 70.5 h for CC(C)N(CCSc1ncnc2[nH]ncc12)C(C)C , thanks.
Resp: -1.52

Req: Provide only the value of recorded cytotoxicity at 70.5 h for O=C1CC2(CCCC2)CC(=O)N1Cc1nc2ncccn2n1
Resp: 1.37

Req: Annotate the compound Cc1cccc(-c2noc([C@@H]3C[C@@H](O)CN3C3CCOCC3)n2)c1 with its measured cytotoxicity at 70.5 h.
Resp: -3.79

Req: Name the recorded cytotoxicity at 70.5 h of the compound listed here: CN1CCN(C2CCN(CCOc3cccc(F)c3)CC2)C1=O
Resp: -13

Req: Retrieve cytotoxicity at 70.5 h measured for Cc1cc(C)n(-c2ccc(C(C)NS(N)(=O)=O)cc2)n1 (stereo not given) and print it.
Resp: -11.9

Req: Specify reported cytotoxicity at 70.5 h for the compound shown: CCC1CN(C(=O)c2ccc(O)c(C)c2)CCN1C(C)C (stereo not given)
Resp: -5.22

Req: Return reported cytotoxicity at 70.5 h. Input compound: COc1ccccc1CNC(=O)N1CCCC(NS(C)(=O)=O)C1 (stereo not given)
Resp: 15.3

Req: Quickly give me recorded cytotoxicity at 70.5 h for N#Cc1cnc2cc(F)cc(F)c2c1NC1CCN(CC(N)=O)CC1
Resp: -4.4

Req: Supply measured cytotoxicity at 70.5 h of CC(=O)N1CCC2(CC1)CC(C(C)C)=NO2 in your reply.
Resp: -9.06

Req: Tell me cytotoxicity at 70.5 h reported for CC(C)C(NC(=O)Cn1nc2c(cc1=O)CCCC2)C(=O)O (stereo not given)
Resp: -13.5

Req: Return cytotoxicity at 70.5 h (reported value) for this compound: CNC(=O)COc1ccc(CNc2cncc(-n3cccn3)n2)cc1
Resp: -16.8
